# test system: JAK1 (Homo sapiens (Human), UniProt P23458)
# Sequence (P23458 whole entry): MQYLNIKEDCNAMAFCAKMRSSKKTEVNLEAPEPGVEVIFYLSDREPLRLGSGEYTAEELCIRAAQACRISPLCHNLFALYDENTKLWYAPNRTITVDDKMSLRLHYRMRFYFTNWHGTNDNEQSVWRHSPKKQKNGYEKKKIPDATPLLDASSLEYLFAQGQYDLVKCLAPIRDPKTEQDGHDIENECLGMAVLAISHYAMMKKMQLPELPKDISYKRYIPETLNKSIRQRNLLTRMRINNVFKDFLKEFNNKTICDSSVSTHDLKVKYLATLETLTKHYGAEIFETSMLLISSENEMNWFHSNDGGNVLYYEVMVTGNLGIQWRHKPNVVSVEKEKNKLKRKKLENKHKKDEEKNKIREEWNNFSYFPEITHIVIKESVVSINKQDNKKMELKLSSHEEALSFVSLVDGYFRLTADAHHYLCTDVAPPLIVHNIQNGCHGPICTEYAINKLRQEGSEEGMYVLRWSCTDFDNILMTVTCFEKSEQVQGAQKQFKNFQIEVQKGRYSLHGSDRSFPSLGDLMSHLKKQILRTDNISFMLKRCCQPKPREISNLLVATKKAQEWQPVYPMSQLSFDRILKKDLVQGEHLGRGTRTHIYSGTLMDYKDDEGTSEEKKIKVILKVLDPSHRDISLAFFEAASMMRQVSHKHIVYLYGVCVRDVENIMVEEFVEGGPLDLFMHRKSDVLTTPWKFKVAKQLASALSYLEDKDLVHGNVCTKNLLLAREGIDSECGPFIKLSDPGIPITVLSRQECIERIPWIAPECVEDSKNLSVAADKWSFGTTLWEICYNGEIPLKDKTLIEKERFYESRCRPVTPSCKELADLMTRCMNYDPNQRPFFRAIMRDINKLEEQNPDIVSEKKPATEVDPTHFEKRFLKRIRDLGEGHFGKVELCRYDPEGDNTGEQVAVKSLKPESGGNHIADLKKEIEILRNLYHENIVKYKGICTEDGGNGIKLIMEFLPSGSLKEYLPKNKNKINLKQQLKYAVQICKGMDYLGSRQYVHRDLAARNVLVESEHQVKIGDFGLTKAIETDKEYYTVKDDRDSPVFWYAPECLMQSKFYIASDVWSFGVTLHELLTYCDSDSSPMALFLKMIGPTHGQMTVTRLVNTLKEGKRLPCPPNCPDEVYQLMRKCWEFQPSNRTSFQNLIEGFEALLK
# experiment description: JAK1 Inhibition Assay (Example B, Omnia kinase fluorescence peptide substrate assay)
# Format: biochemical
pIC50: −log10 of the molar value. Structures can show the parent of a compound that is named as a salt.
observation type: pIC50

# pIC50 lookup, item CCC(CC)n1cc(-c2nc(-c3cnn(CCNC4CC4)c3)cn3nccc23)cn1 [Example 134, trifluoroacetate] 7.00 to 8.00

Try the molecule `CCC(CC)n1cc(-c2nc(-c3cnn(C4CCN(C(=O)NC)CC4)c3)cn3nccc23)cn1` 7.00 to 8.00

Try the molecule `CCC(CC)n1cc(-c2nc(-c3cnn(C4CN(C(=O)CN)C4)c3)cn3nccc23)cn1` 5.00 to 6.00

Try the molecule `CCC(CC)n1cc(-c2nc(-c3cnn(CCN4CC(F)C4)c3)cn3nccc23)cn1` 5.00 to 6.00

Try the molecule `CCC(CC)n1cc(-c2nc(-c3cnn([C@H]4C[C@H](CO)C4)c3)cn3nccc23)cn1` 6.00 to 7.00

Try the molecule `CCC(CC)n1cc(-c2nc(-c3cnn(C[C@@H]4CCCN4)c3)cn3nccc23)cn1` 5.00 to 6.00

Try the molecule `CCC1(n2cc(-c3nc(-c4cnn(C)c4)cn4nccc34)cn2)CN(S(=O)(=O)C(F)(F)F)C1` 7.00 to 8.00

Try the molecule `CC(C)C[C@H](C)n1cc(-c2nc(-c3cnn(C(CO)CO)c3)cn3nccc23)cn1` 5.00 to 6.00

====

# test system: UniProtKB P23458
# experiment description: JAK1 Inhibition Assay (Example B, Omnia kinase fluorescence peptide substrate assay)
# Assay type: biochemical
# Experimental: The assays described in Examples A, B, C and D for the determination of Tyk2, JAK1, JAK2 and JAK3 kinase activity, respectively, utilized the Omnia® Kinase fluorescence peptide substrate-based technology (Invitrogen). […] The reactions were therefore read at excitation 360 nm and emission was measured at 485 nm every 50 seconds for 45 minutes using a PerkinElmer EnVision Multilabel Plate Reader. […]
Please provide measured IC50 for the entries that follow.

# IC50 lookup, item CCC(C1CC(F)(F)C1)n1cc(-c2nc(-c3cnn(C[C@@H](O)CO)c3)cn3nccc23)cn1 (stereo partly drawn) 0.01 to 0.1 µM

Try the compound `CCC(CC)n1cc(-c2nc(-c3cnn(CCN[C@@H]4CCN(C)C4=O)c3)cn3nccc23)cn1` 1 to 10 µM

Try the compound `CCC(CC)n1cc(-c2nc(-c3cnn(C[C@H](O)CC)c3)cn3nccc23)cn1` 0.1 to 1 µM

Try the compound C[C@@H]1CCCC[C@H]1n1cc(-c2nc(-c3cnn(C(CO)CO)c3)cn3nccc23)cn1 (single isomer, unassigned) 1 to 10 µM

Try the compound `CCC(CC)n1cc(-c2nc(-c3cnn(C4CS(=O)(=O)C4)c3)cn3nccc23)cn1` 0.1 to 1 µM

Try the compound CCC(CC)n1cc(-c2nc(-c3cnn([C@@H](C)[C@@H](O)CO)c3)cn3nccc23)cn1 (single isomer, unassigned) 0.1 to 1 µM

Try the compound `CCC(CC)n1cc(-c2nc(-c3cnn(CCCO)c3)cn3nccc23)cn1` 1 to 10 µM

Try the compound `CCC(CC)n1cc(-c2nc(-c3cnn(C[C@@H]4CCC(=O)N4)c3)cn3nccc23)cn1` 0.1 to 1 µM

Try the compound `CCC(CC)n1cc(-c2nc(-c3cnn(C[C@@H](C)O)c3)cn3nccc23)cn1` 1 to 10 µM

Try the compound `CCC(CC)n1cc(-c2nc(-c3cnn([C@H]4C[C@H](C(N)=O)C4)c3)cn3nccc23)cn1` 0.1 to 1 µM

Try the compound `CCC(CC)n1cc(-c2nc(-c3cnn(C4CN(C(=O)[C@@H](C)O)C4)c3)cn3nccc23)cn1` 1 to 10 µM

Try the compound `CCC(CC)n1cc(-c2nc(-c3cnn(C4CCN(S(C)(=O)=O)CC4)c3)cn3nccc23)cn1` 0.01 to 0.1 µM

Try the compound CCC(CC)n1cc(-c2nc(-c3cnn([C@H](C)[C@H](O)CO)c3)cn3nccc23)cn1 (single isomer, unassigned) 0.1 to 1 µM

Try the compound `CCC(CC)n1cc(-c2nc(-c3cnn([C@@H](C)[C@H](O)CO)c3)cn3nccc23)cn1` 0.1 to 1 µM

Try the compound `CCC(CC)n1cc(-c2nc(-c3cnn(C4CN(C(=O)C(C)(C)O)C4)c3)cn3nccc23)cn1` 0.1 to 1 µM

====

# test system: JAK2 (Homo sapiens (Human))
# Sequence (O60674 whole entry): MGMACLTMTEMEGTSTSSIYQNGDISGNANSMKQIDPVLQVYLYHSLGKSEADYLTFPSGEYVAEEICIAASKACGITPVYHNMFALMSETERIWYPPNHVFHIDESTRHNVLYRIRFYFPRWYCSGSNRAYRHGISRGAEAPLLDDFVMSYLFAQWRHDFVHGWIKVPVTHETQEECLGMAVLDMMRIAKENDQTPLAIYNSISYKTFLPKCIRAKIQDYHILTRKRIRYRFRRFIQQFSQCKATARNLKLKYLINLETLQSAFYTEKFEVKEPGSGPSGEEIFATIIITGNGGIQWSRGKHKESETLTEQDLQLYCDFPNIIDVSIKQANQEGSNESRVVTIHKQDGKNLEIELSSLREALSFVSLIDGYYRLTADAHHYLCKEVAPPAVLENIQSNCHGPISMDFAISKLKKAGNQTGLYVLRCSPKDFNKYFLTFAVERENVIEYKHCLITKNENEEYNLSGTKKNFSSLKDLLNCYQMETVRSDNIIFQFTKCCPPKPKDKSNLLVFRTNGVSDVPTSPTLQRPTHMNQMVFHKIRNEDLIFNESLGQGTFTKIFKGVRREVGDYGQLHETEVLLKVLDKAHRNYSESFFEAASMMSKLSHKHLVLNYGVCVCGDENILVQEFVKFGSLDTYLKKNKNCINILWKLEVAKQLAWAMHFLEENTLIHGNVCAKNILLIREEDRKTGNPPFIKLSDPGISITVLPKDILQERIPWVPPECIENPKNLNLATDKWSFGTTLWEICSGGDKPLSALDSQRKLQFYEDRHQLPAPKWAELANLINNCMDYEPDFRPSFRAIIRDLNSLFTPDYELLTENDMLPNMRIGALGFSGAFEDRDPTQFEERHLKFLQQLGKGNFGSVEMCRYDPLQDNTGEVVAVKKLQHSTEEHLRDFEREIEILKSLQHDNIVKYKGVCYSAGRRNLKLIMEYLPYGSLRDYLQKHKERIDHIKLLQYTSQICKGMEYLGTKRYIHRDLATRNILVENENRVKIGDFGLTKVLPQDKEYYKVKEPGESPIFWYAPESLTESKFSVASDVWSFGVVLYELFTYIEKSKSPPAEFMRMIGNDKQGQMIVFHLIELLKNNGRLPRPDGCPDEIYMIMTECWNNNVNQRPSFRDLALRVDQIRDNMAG
# experiment description: JAK2 Inhibition Assay (Example C, Omnia kinase fluorescence peptide substrate assay)
# Assay type: biochemical
# setup conditions: JAK2 Enzyme IC50 1 mM ATP, averaged IC50 ranges
# Experimental: The assays described in Examples A, B, C and D for the determination of Tyk2, JAK1, JAK2 and JAK3 kinase activity, respectively, utilized the Omnia® Kinase fluorescence peptide substrate-based technology (Invitrogen). […] The reactions were therefore read at excitation 360 nm and emission was measured at 485 nm every 50 seconds for 45 minutes using a PerkinElmer EnVision Multilabel Plate Reader. […]
Please provide measured IC50 for the entries that follow.

# IC50 lookup, item CC1(C)CCC[C@H]1n1cc(-c2nc(-c3cnn(C[C@@H](O)CO)c3)cn3nccc23)cn1 (single isomer, unassigned) 0.1 to 1 µM

Try the molecule `CC(C)C[C@@H](C)n1cc(-c2nc(-c3cnn(C[C@@H](O)CO)c3)cn3nccc23)cn1` 0.1 to 1 µM

Try the molecule CCC(CC)n1cc(-c2nc(-c3cnn(C4CN(C(=O)CNC)C4)c3)cn3nccc23)cn1 [Example 187, bis(2,2,2-trifluoroacetate)] 0.01 to 0.1 µM

Try the molecule C[C@@H]1CCCC[C@H]1n1cc(-c2nc(-c3cnn(C[C@H](O)CO)c3)cn3nccc23)cn1 (single isomer, unassigned) 0.01 to 0.1 µM

Try the molecule `CCC(CC)n1cc(-c2nc(-c3cnn(C[C@H]4COCCN4)c3)cn3nccc23)cn1` 0.01 to 0.1 µM

Try the molecule `CCC(CC)n1cc(-c2nc(-c3cnn(C(C)(C)CO)c3)cn3nccc23)cn1` 0.01 to 0.1 µM

Try the molecule `CCC(CC)n1cc(-c2nc(-c3cnn(CC4(CO)COC4)c3)cn3nccc23)cn1` 0.01 to 0.1 µM

====

# test system: JAK1 (Homo sapiens (Human), UniProt P23458)
# experiment description: JAK1 Inhibition Assay (Example B, Omnia kinase fluorescence peptide substrate assay)
# Format: biochemical
# setup conditions: JAK1 Enzyme IC50 1 mM ATP, 1 mM ATP; averaged IC50 ranges
observation type: IC50

# IC50 lookup, item `CC(C)C[C@@H](C)n1cc(-c2nc(-c3cnn(C[C@H](O)CO)c3)cn3nccc23)cn1` 1 to 10 µM

Try the compound `C[C@@H]1CC[C@@H]1n1cc(-c2nc(-c3cnn(C[C@@H](O)CO)c3)cn3nccc23)cn1` 1 to 10 µM

Try the compound CC[C@@H]1CCC[C@@H]1n1cc(-c2nc(-c3cnn(C[C@@H](O)CO)c3)cn3nccc23)cn1 (single isomer, unassigned) 0.1 to 1 µM

Try the compound `CCC(CC)n1cc(-c2nc(-c3cnn(C[C@H](O)CN4CCCC4)c3)cn3nccc23)cn1` 1 to 10 µM

Try the compound `CCC[C@@H](C)n1cc(-c2nc(-c3cnn(C[C@@H](O)CO)c3)cn3nccc23)cn1` 1 to 10 µM

====

# test system: JAK1 (Homo sapiens (Human), UniProt P23458)
# experiment description: JAK1 Inhibition Assay (Example B, Omnia kinase fluorescence peptide substrate assay)
# Assay type: biochemical
pIC50: −log10 of the molar value. Counter-ions that a name gives are not always drawn.
Please provide measured pIC50 for the entries that follow.

# pIC50 lookup, item `CC[C@@H](C)n1cc(-c2nc(-c3cnn(C4CCS(=O)(=O)CC4)c3)cn3nccc23)cn1` 5.00 to 6.00

Try the compound CCC(CC)n1cc(-c2nc(-c3cnn(CCNC4CC(CO)C4)c3)cn3nccc23)cn1 (stereo not drawn) 6.00 to 7.00

Try the compound `CCC(CC)n1cc(-c2nc(-c3cnn(C[C@H](C)O)c3)cn3nccc23)cn1` 6.00 to 7.00

Try the compound `CCC(CC)n1cc(-c2nc(-c3cnn(C(C)(C)CO)c3)cn3nccc23)cn1` 6.00 to 7.00

Try the compound `CCC(CC)n1cc(-c2nc(-c3cnn([C@H]4C[C@@H](CO)C4)c3)cn3nccc23)cn1` 6.00 to 7.00

Try the compound `CCC(CC)n1cc(-c2nc(-c3cnn(C4CN(C(=O)[C@H](C)O)C4)c3)cn3nccc23)cn1` 6.00 to 7.00

Try the compound CCC(C1CC1)n1cc(-c2nc(-c3cnn(C[C@@H](O)CO)c3)cn3nccc23)cn1 (single isomer, unassigned) 6.00 to 7.00

Try the compound `CCC(CC)n1cc(-c2nc(-c3cnn([C@@H]4CCNC[C@H]4O)c3)cn3nccc23)cn1` 5.00 to 6.00

Try the compound CCC(CC)n1cc(-c2nc(-c3cnn([C@@H]4COC[C@H]4O)c3)cn3nccc23)cn1 (single isomer, unassigned) 6.00 to 7.00

Try the compound `CCC(CC)n1cc(-c2nc(-c3cnn([C@H]4C[C@H](C(=O)N(C)C)C4)c3)cn3nccc23)cn1` 5.00 to 6.00

Try the compound `CC[C@H](CC(F)(F)F)n1cc(-c2nc(-c3cnn(C(CO)CO)c3)cn3nccc23)cn1` 6.00 to 7.00

Try the compound CCOC(C)n1cc(-c2nc(-c3cnn(C)c3)cn3nccc23)cn1 (stereo not drawn) 5.00 to 6.00

Try the compound `CCC(CC)n1cc(-c2nc(-c3cnn(CC(C)(C)O)c3)cn3nccc23)cn1` 6.00 to 7.00

Try the compound CCC(CC)n1cc(-c2nc(-c3cnn(C4CCNCC4)c3)cn3nccc23)cn1 [Example 25, hydrochloride] 6.00 to 7.00

Try the compound `CCC(CC)n1cc(-c2nc(-c3cnn(CCN4CC[C@H](OC)C4)c3)cn3nccc23)cn1` 6.00 to 7.00
